- system under test: FLuc-C-HiBiT (Photinus pyralis, UniProt P08659)
- Construct: firefly luciferase with C-terminal HiBiT tag, E. coli expressed
- Sequence (P08659 whole entry, looked up): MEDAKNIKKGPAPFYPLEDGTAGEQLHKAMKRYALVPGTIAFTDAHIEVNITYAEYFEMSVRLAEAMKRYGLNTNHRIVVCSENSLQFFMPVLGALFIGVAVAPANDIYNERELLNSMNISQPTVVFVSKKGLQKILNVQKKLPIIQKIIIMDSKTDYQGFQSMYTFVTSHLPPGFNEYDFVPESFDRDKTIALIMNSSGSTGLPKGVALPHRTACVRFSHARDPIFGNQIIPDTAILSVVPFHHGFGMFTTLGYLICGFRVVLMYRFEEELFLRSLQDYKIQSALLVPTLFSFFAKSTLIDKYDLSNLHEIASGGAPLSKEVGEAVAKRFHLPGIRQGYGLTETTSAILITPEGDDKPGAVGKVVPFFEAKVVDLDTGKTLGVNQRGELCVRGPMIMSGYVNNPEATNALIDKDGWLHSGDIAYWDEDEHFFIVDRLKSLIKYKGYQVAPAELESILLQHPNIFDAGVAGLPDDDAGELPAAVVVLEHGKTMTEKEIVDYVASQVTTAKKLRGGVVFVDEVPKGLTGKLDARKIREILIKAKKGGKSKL
- assay procedure: biochemical
- experimental context: enzyme activity, 10 uM ATP; read-out: IC50 or SDR50 (mM) / FLuc E
- Procedure: The enzyme activity of FLuc-N-HiBiT, FLuc-C-HiBiT, and FLuc-C-NLuc was measured similar to P. pyralis firefly luciferase (FLuc) as previously described. […] Compounds and controls were added to each plate as described in Supplementary Data 8 with a Hornet pintool system (Wako Automation). […] Luciferin was incubated with FLuc enzyme for 5 min before FLuc activity was then measured on a ViewLux CCD imager (PerkinElmer), with exposure times up to ten seconds with medium to high gain settings. […]
measured property: IC50 (mM)
Answer format: numeric, mM implied, no suffix.

Here is how some compounds turned out for IC50.
The reported FLuc-C-HiBiT (Photinus pyralis, UniProt P08659) IC50 of Cc1ccc(C2Cn3nnc(C(=O)N4CCC(C(=O)Nc5ccc(F)cc5)CC4)c3CO2)cc1 (centres unmarked) [NCGC00449591-01] is 0.0111

Measured on FLuc-C-HiBiT (Photinus pyralis, UniProt P08659), CC(C)n1cc(-c2cc(C(=O)N3CCC(C)(C)C3)c3ccc(F)cc3n2)cn1 [NCGC00430819-01] has a documented IC50 of 0.00495

Entry NC(=O)C1CCCN(c2ncnc3c2cnn3-c2ccccc2)C1 (centres unmarked) [NCGC00644764-01] ; assay system FLuc-C-HiBiT (Photinus pyralis, UniProt P08659); IC50 recorded at 0.0111

IC50 for FLuc-C-HiBiT (Photinus pyralis, UniProt P08659) with input Cc1ccc(-c2cc3c(=O)n(CCNC(=O)Cc4ccsc4)ccn3n2)c(C)c1 [NCGC00456972-01] equals 0.00624

Value (IC50, FLuc-C-HiBiT (Photinus pyralis, UniProt P08659)) for record c1ccc(-c2ccnc(NCCc3c[nH]c4ccccc34)n2)nc1 [NCGC00446312-01] = 0.0197

O=C(NCc1ccc2c(c1)OCO2)C1CCN(c2cc(C(F)(F)F)ncn2)CC1 [NCGC00455586-01] on FLuc-C-HiBiT (Photinus pyralis, UniProt P08659) gives IC50 = 0.0111

Next:
FLuc-C-HiBiT (Photinus pyralis, UniProt P08659) assay, compound CC(=O)Nc1ccc(NC(=O)CCCc2nc(-c3ccc(C(C)(C)C)cc3)no2)cc1 [NCGC00116112-01] , recorded IC50 = 0.00495

====

- system under test: FLuc-C-HiBiT (firefly luciferase) (Photinus pyralis, UniProt P08659, form not given/L550V)
- Sequence (P08659 2-550 L550V, form open): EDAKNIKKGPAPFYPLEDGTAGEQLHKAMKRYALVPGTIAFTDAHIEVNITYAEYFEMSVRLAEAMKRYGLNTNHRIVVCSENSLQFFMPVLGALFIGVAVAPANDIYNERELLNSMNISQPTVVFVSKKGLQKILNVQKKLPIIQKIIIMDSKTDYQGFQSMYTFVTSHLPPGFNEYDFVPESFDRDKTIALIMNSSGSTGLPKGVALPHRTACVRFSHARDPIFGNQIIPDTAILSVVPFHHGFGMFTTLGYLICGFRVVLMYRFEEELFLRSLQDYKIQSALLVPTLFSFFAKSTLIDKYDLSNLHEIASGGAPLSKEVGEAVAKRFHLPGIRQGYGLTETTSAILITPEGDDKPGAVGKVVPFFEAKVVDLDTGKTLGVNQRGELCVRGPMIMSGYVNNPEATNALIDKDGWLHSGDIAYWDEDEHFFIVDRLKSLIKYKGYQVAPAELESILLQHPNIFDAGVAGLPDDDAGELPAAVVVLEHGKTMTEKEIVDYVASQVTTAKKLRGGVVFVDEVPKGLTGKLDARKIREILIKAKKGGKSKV
- assay procedure: SDR assay, FLuc-C-HiBiT
- experimental context: + ATP; SDR max. response; clade S
measured property: % Activity (max response, + ATP) (%)
Lab book: enter the figure in %, no units written.

Field: example entries. Status: answers known.
% Activity (max response, + ATP) for O=C(NC1CCCCCC1)C1CCN(C(=O)c2ncn3c2COC(c2ccc(Cl)cc2)C3)CC1 (centres unmarked) [NCGC00449846-01] is 13.50

Entry O=C(NC1CCCC1)C1CCN(C(=O)c2ncn3c2COC(c2ccc(Cl)cc2)C3)CC1 (centres unmarked) [NCGC00449843-01] ; % Activity (max response, + ATP) = 0.00

Reported % Activity (max response, + ATP) for Cc1ccc(NC(=O)C2CCN(C(=O)c3ncn4c3COC(c3ccc(F)cc3)C4)CC2)c(F)c1 (centres unmarked) [NCGC00449944-01] was 140.99

Per the records, this compound ( COc1ccc(CNC(=O)C2CCN(C(=O)c3ncn4c3COC(c3ccccc3)C4)CC2)cc1 (centres unmarked) [NCGC00449778-01] ) has % Activity (max response, + ATP) equal to 301.65

What the record says about Cc1ccc(C2Cn3cnc(C(=O)N4CCC(C(=O)NCc5ccco5)CC4)c3CO2)cc1 (centres unmarked) [NCGC00449893-01] : % Activity (max response, + ATP) is 104.01

New cases:
The compound O=C(NCc1ccc(F)cc1F)C1CCN(C(=O)c2ncn3c2COC(c2ccccc2)C3)CC1 (centres unmarked) [NCGC00449785-01] showed % Activity (max response, + ATP) equal to 291.32

The compound listed as O=C(NCc1ccc(F)c(Cl)c1)C1CCN(C(=O)c2ncn3c2COC(c2ccccc2)C3)CC1 (centres unmarked) [NCGC00449790-01] has a reported % Activity (max response, + ATP) of 237.76

According to the records, this compound O=C(Nc1ccc(F)cc1)C1CCN(C(=O)c2ncn3c2COC(c2ccccc2)C3)CC1 (centres unmarked) [NCGC00449915-01] displays % Activity (max response, + ATP) of 357.60

Origin of values: paper PMC12064818
